Provide the recorded K0.5-mut/K0.5-wt for the entries that follow.
target: antithrombin III (plasma purified human AT-III), in complex with unfractionated heparin
One number for each entry.

protein	K0.5-mut/K0.5-wt
FIXa-Y155F/R318Y/R338E/E410N (protein) chain 1: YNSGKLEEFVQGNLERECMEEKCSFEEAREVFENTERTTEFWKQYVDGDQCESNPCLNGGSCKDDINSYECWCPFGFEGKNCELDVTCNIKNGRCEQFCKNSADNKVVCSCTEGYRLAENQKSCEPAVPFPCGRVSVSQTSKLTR chain 2: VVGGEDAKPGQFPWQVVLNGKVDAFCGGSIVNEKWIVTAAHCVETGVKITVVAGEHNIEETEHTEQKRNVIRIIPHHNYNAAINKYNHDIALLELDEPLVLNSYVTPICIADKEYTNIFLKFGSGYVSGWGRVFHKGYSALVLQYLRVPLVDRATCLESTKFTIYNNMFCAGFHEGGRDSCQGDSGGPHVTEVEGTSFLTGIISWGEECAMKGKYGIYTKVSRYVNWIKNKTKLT	56.8

Moving on to the next protein.
Exam item: Indicate its recorded K0.5-mut/K0.5-wt; the protein in question is FIXa-R338E/R403E/E410N (protein) chain 1: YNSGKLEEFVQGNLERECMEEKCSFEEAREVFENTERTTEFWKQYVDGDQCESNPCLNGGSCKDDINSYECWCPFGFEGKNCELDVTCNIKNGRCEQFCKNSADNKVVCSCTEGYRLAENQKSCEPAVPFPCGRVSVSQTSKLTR chain 2: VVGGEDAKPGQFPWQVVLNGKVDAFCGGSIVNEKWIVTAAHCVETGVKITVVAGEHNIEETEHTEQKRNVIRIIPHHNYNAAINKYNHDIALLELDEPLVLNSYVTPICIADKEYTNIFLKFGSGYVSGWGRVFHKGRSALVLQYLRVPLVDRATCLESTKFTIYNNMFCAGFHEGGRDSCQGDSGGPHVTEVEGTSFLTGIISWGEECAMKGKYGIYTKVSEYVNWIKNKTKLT
Marked response: 122
